Test system: K562 (chronic myelogenous leukaemia)
EXPERIMENTAL DETAILS: Effect of compounds on tumor cell lines (assay of Latham et al.), K562
Format: cell-based
CONDITION DESCRIPTION: K562 cells, 96 hours after treatment, 1 μM to 100 μM; read-out: K 562 potency (IC50)
ASSAY METRIC: IC50

What does the record list as IC50 for `Cc1ccc(CSC(=Cc2cccc(Cl)c2Cl)C(=O)c2ccc(Cl)cc2)cc1` ?
25 to 50 µM

====

Test system: K562 (chronic myelogenous leukaemia)
EXPERIMENTAL DETAILS: Effect of compounds on tumor cell lines (assay of Latham et al.), K562
Assay type: cell-based
CONDITION DESCRIPTION: K562 cells, 96 hours after treatment, 1 μM to 100 μM; read-out: K 562 potency (IC50)
Procedure: The effect of the compounds of the invention on tumor cells was determined by the assay described by Latham et al., Oncogene 12:827-837 (1996). Tumor cells K562 (chronic myelogenous leukaemia) or DU145 (prostate cancer) were plated in 12-well dishes at a cell density of 2.5×10^4 cells well. […] When necessary, the total number of viable cells was determined by trypsinizing the wells and counting the number of viable cells, as determined by trypan blue exclusion, using a hemacytometer. […]
ASSAY METRIC: IC50

# COMPOUND, MEASUREMENT TARGET, OBSERVED VALUE
measured = [
    ("Nc1ccc(/C=C(/SCc2ccc(F)cc2)C(=O)c2ccc(C(=O)O)cc2)cc1[N+](=O)[O-]", "K562 (chronic myelogenous leukaemia)", "10 to 25 µM"),
    ("O=C(C(=Cc1ccc(F)c([N+](=O)[O-])c1)SCc1ccc(Br)cc1)c1c(F)c(F)c(F)c(F)c1F", "K562 (chronic myelogenous leukaemia)", "1 to 10 µM"),
    ("O=C(C(=Cc1ccc(Cl)cc1)SCc1ccc(F)cc1)c1ccc(Cl)cc1", "K562 (chronic myelogenous leukaemia)", "1 to 10 µM"),
    ("CN(C)c1ccc(C=C(SCc2ccc(Cl)cc2)C(=O)c2ccc([N+](=O)[O-])cc2)cc1", "K562 (chronic myelogenous leukaemia)", "50 to 100 µM"),
]

Identify the measured IC50 of COc1ccc(C=C(SCc2ccc(Cl)cc2)C(=O)c2ccc(Br)cc2)cc1 [Example 226] for K562 (chronic myelogenous leukaemia).
1 to 10 µM

`O=C(C(=Cc1ccc([N+](=O)[O-])c(O)c1)SCc1ccc(Br)cc1)c1ccc([N+](=O)[O-])c(Cl)c1` ?
1 to 10 µM

What do you get for `COc1ccccc1C=C(SCc1ccc(F)cc1)C(=O)c1ccc(Cl)cc1` ?
1 to 10 µM

Okay, and `O=C(/C(=C\c1cc(I)c(O)c(I)c1)SCc1ccc(Br)cc1)c1ccc(Br)cc1` ?
1 to 10 µM

What about `O=C(C(=Cc1ccc(Br)cc1)SCc1ccc(Cl)cc1)c1ccc(Cl)cc1` ?
1 to 10 µM

Here is the next compound: `CN(C)c1ccc(C=C(SCc2ccc(F)cc2)C(=O)c2ccc(C(=O)O)cc2)cc1`
10 to 25 µM

Also `O=C(O)c1ccc(C(=O)/C(=C\c2ccc(F)c([N+](=O)[O-])c2)SCc2nc3ccc(Br)cc3[nH]2)cc1` , if possible.
1 to 10 µM

Record: `CN(C)c1ccc(C=C(SCc2ccc(Cl)c(Cl)c2)C(=O)c2ccc(Cl)cc2)cc1`
50 to 100 µM

Also need `CCOc1ccc(C=C(SCc2ccccc2Cl)C(=O)c2ccc(Cl)cc2)cc1OC` , thanks.
1 to 10 µM

Also need `Cc1ccc(CSC(=Cc2ccccc2F)C(=O)c2ccc(Br)cc2)cc1` , thanks.
1 to 10 µM

Record: `O=C(C(=Cc1ccc(O)cc1)SCc1ccc(Cl)c(Cl)c1)c1ccc(Cl)cc1`
1 to 10 µM

Also `Cc1[nH]c(/C=C(/SCc2ccc(Br)cc2)C(=O)c2ccc(Br)cc2)c(C)c1C(=O)O` ?
50 to 100 µM
